system.under.test: PDE1B (Homo sapiens)
Construct: purchased Reaction Biology Corporation, Malvern, Pa
Sequence (Q01064 whole entry): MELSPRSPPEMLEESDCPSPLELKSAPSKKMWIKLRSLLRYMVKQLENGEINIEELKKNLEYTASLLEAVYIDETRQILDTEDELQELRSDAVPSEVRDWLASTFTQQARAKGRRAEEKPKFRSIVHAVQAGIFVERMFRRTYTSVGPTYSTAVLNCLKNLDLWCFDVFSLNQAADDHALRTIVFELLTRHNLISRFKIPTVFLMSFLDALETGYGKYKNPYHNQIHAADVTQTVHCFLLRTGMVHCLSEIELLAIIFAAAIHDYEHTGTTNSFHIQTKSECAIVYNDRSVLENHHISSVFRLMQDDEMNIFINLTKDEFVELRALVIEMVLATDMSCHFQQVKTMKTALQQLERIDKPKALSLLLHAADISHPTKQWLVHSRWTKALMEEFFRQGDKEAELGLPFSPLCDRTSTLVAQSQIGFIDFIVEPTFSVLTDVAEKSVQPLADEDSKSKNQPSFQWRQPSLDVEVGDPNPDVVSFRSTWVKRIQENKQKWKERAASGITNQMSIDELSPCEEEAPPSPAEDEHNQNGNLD
protocol.summary: Phosphodiesterase enzyme screening assay, PDE1B
Assay type: biochemical
test.settings: Table 1; ratio of IC50 values; value greater than 1 indicates greater selectivity for PDE9A2
Label condition met when PDE1B selectivity (versus PDE9A2) is strictly below 600; otherwise label condition not met.

Query: Answer whether the compound CC1CN(Cc2ccc(Cl)c(F)c2)CC1c1nn2c(C3CCOCC3)ncc2c(=O)[nH]1 (single isomer, unassigned; (+)) has PDE1B selectivity (versus PDE9A2) strictly less than 600
Response: condition not met

Query: Is PDE1B selectivity (versus PDE9A2) strictly under 600 for the entry CC1CN(Cc2cccc(C3CC3)c2)CC1c1nn2c(C3CCOCC3)ncc2c(=O)[nH]1 (single isomer, unassigned; (+)) ?
Response: condition not met

Query: Does the reported PDE1B selectivity (versus PDE9A2) of the following compound sit strictly below 600? CC1CN(Cc2ccc(C(F)(F)F)nc2)CC1c1nn2c(C3CCOCC3)ncc2c(=O)[nH]1 (single isomer, unassigned; (+))
Response: condition not met

Query: Regarding Cc1ccc(CN2CC(C)C(c3nn4c(C5CCOCC5)ncc4c(=O)[nH]3)C2)cn1 (single isomer, unassigned; (+)) , kindly confirm whether its PDE1B selectivity (versus PDE9A2) is beneath 600.
Response: condition met

Query: PDE1B selectivity (versus PDE9A2) under 600? Item: Cc1ccc(Cl)cc1-c1ncc2c(=O)[nH]c(C3CN(Cc4ccccc4)CC3C)nn12 (single isomer, unassigned; (+))
Response: condition met

Query: Hello, is PDE1B selectivity (versus PDE9A2) of the following compound strictly smaller than 600? CC1CN(Cc2ccccc2F)CC1c1nn2c(C3CCOCC3)ncc2c(=O)[nH]1 (single isomer, unassigned; (+))
Response: condition met

* * *

Can you tell me PDE1B selectivity (versus PDE9A2) for the items I'm about to list?
system.under.test: PDE1B (Homo sapiens)
Construct: purchased Reaction Biology Corporation, Malvern, Pa
protocol.summary: Phosphodiesterase enzyme screening assay, PDE1B
Format: biochemical
test.settings: Table 1; ratio of IC50 values; value greater than 1 indicates greater selectivity for PDE9A2
Form rule: numeric answer, no unit written next to it.

PDE1B (Homo sapiens) PDE1B selectivity (versus PDE9A2) of CC1CN(Cc2cccnn2)CC1c1nn2c(C3CCOCC3)ncc2c(=O)[nH]1 (single isomer, unassigned; (+)) is 276

Form field PDE1B selectivity (versus PDE9A2) for item CC1CN(Cc2ccccc2Br)CC1c1nn2c(C3CCOCC3)ncc2c(=O)[nH]1 (single isomer, unassigned; (+)) on PDE1B (Homo sapiens): 28

# lookup: CC1CN(C(=O)c2ccccc2)CC1c1nn2c(C3CCOCC3)ncc2c(=O)[nH]1 (single isomer, unassigned; (-)) [(−)-2-((3,4-trans)-1-benzoyl-4-methylpyrrolidin-3-yl)-7-(tet] on PDE1B (Homo sapiens), PDE1B selectivity (versus PDE9A2) = 32

Response field PDE1B selectivity (versus PDE9A2) (PDE1B (Homo sapiens)) for item CC1CN(Cc2cccc(F)c2F)CC1c1nn2c(C3CCOCC3)ncc2c(=O)[nH]1 (single isomer, unassigned; (+)) : 218

Readout PDE1B selectivity (versus PDE9A2) for Cc1ccccc1-c1ncc2c(=O)[nH]c(C3CN(Cc4ncccn4)CC3C)nn12 (single isomer, unassigned; (+)) , test system PDE1B (Homo sapiens), was 119

Entry CC1CN(C(=O)c2ncc3ccccc3n2)CC1c1nn2c(C3CCOCC3)ncc2c(=O)[nH]1 (single isomer, unassigned; (-)) , tested on PDE1B (Homo sapiens), has a reported PDE1B selectivity (versus PDE9A2) of 50

Entry CC1CN(Cc2cccc(Br)c2)CC1c1nn2c(C3CCOCC3)ncc2c(=O)[nH]1 (single isomer, unassigned; (+)) : PDE1B selectivity (versus PDE9A2) on PDE1B (Homo sapiens) = 92

Value (PDE1B selectivity (versus PDE9A2), PDE1B (Homo sapiens)) for record Cc1cc(F)ccc1-c1ncc2c(=O)[nH]c(C3CN(Cc4ncccn4)CC3C)nn12 (single isomer, unassigned; (-)) = 175

Item COc1ccc(F)c(CN2CC(C)C(c3nn4c(C5CCOCC5)ncc4c(=O)[nH]3)C2)c1 (single isomer, unassigned; (+)) was tested on PDE1B (Homo sapiens); the reported PDE1B selectivity (versus PDE9A2) is 255

PDE1B selectivity (versus PDE9A2) of CC1CN(C(C)c2ccccc2)CC1c1nn2c(C3CCOCC3)ncc2c(=O)[nH]1 (single isomer, unassigned; (+)) [(+)-2-((3,4-trans)-4-methyl-1-((S)-1-phenylethyl)pyrrolidin-] , assay on PDE1B (Homo sapiens), is 99

Known value: PDE1B (Homo sapiens) PDE1B selectivity (versus PDE9A2) of the compound CC1CN(c2ncccn2)CC1c1nn2c(C3CCOCC3)ncc2c(=O)[nH]1 (single isomer, unassigned; (+)) equals 1

Reading of PDE1B selectivity (versus PDE9A2) for CC1CN(Cc2ccccc2C2CC2)CC1c1nn2c(C3CCOCC3)ncc2c(=O)[nH]1 (single isomer, unassigned; (-)) with PDE1B (Homo sapiens): 505

Field PDE1B selectivity (versus PDE9A2) (system: PDE1B (Homo sapiens)) for entry CC1CN(Cc2ccc3cnccc3c2)CC1c1nn2c(C3CCOCC3)ncc2c(=O)[nH]1 (single isomer, unassigned; (+)) = 335
